Tgt: PTPN2 (Homo sapiens, UniProt P17706)
Construct: expressed in transfected cells; host or cells: 293T.109 (HiBiT-PTPN2), derived from 293T WT (ATCC)
Sequence (P17706 whole entry): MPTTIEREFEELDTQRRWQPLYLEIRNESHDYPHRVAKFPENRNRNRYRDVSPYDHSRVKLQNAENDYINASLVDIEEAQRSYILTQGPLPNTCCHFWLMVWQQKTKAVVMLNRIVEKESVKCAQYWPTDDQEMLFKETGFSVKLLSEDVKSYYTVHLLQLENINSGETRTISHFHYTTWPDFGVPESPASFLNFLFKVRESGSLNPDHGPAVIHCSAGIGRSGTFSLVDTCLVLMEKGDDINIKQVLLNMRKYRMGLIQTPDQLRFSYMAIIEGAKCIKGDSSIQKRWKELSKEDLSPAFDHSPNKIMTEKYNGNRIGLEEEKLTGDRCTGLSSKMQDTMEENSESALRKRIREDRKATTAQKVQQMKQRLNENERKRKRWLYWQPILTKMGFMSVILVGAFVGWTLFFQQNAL
Assay explanation: HiBiT PTPN2 degradation in 293T.109 (HiBiT-PTPN2) cells, 24 hours
Type: cell-based
Measurement conditions: 293T.109 cells
Description: Dulbecco's modified Eagle medium (DMEM) without phenol red and fetal bovine serum (FBS) were purchased from Gibco (Grand Island, NY, USA). Nano-Glo® HiBiT Lytic Assay System was purchased from Promega (Medison, WI, USA). 293T. […] PTPN2 degradation was determined based on quantification of luminescent signal using Nano-Glo® HiBiT Lytic Assay kit. […] Luminescence was acquired on EnVision™ Multilabel Reader (PerkinElmer, Santa Clara, CA, USA).
Quantity name: DC50

Compound: CCn1c(=O)n(C2CCC(=O)NC2=O)c2ccc(C3CCN([C@H](CO)C(=O)Nc4ccc5c(F)c(N6CC(=O)NS6(=O)=O)c(O)cc5c4)CC3)cc21 (some centres unmarked)
DC50: < 50 nM

Requested read-out: DC50. Entry: Cn1c(=O)n(C2CCC(=O)NC2=O)c2ccc(N3[C@@H]4CC[C@H]3C[C@H](CC(=O)Nc3ccc5c(F)c(N6CC(=O)NS6(=O)=O)c(O)cc5c3)C4)cc21 (some centres unmarked)
50 to 150 nM

Same thing, different compound: O=C1CCC(c2ccc(C3CCN(CC(=O)Nc4ccc5c(F)c(N6CC(=O)NS6(=O)=O)c(O)cc5c4)CC3)cc2)C(=O)N1 (centres unmarked)
150 to 500 nM

Same thing, different compound: Cn1c(=O)n(C2CCC(=O)NC2=O)c2ccc(-c3ccc4c(cnn4CC(=O)Nc4ccc5c(F)c(N6CC(=O)NS6(=O)=O)c(O)cc5c4)c3)cc21 (centres unmarked)
50 to 150 nM

Same thing, different compound: Cn1nc(C2CCC(=O)NC2=O)c2ccc(C3CCN(CCNC(=O)c4ccc5c(F)c(N6CC(=O)NS6(=O)=O)c(O)cc5c4)CC3(F)F)cc21 (centres unmarked)
150 to 500 nM

Same thing, different compound: Cn1c(=O)n(C2CCC(=O)NC2=O)c2ccc(C3CCN(C/C=C/c4ccc5c(F)c(N6CC(=O)NS6(=O)=O)c(O)cc5c4)CC3)cc21 (centres unmarked)
150 to 500 nM

Same thing, different compound: Cn1c(=O)n(C2CCC(=O)NC2=O)c2ccc(-c3cc4cnn(CC(=O)Nc5ccc6c(F)c(N7CC(=O)NS7(=O)=O)c(O)cc6c5)c4cc3F)cc21 (centres unmarked)
< 50 nM

Same thing, different compound: COc1cc(CC(=O)Nc2ccc3c(F)c(N4CC(=O)NS4(=O)=O)c(O)cc3c2)ccc1-c1ccc2c(c1)n(C)c(=O)n2C1CCC(=O)NC1=O (centres unmarked)
150 to 500 nM

Same thing, different compound: Cn1c(=O)n(C2CCC(=O)NC2=O)c2ccc(N3[C@@H]4CC[C@H]3C[C@@H](CC(=O)Nc3ccc5c(F)c(N6CC(=O)NS6(=O)=O)c(O)cc5c3)C4)cc21 (some centres unmarked)
150 to 500 nM

Same thing, different compound: Cn1c(=O)n(C2CCC(=O)NC2=O)c2ccc(N3CCC(CCNC(=O)Nc4ccc5c(F)c(N6CC(=O)NS6(=O)=O)c(O)cc5c4)CC3)c(F)c21 (centres unmarked)
< 50 nM

Same thing, different compound: "Cn1c(=O)n([C@@H]2CCC(=O)NC2=O)c2ccc(N3CCC(CC(=O)Nc4ccc5c(F)c(N6CC(=O)NS6(=O)=O)c(O)cc5c4)CC3)cc21"
50 to 150 nM
